Data credit: ChEMBL document CHEMBL2218924

# System name: Ephrin type-B receptor 3 (Homo sapiens) (UniProt P54753)
# Sequence (P54753 whole entry): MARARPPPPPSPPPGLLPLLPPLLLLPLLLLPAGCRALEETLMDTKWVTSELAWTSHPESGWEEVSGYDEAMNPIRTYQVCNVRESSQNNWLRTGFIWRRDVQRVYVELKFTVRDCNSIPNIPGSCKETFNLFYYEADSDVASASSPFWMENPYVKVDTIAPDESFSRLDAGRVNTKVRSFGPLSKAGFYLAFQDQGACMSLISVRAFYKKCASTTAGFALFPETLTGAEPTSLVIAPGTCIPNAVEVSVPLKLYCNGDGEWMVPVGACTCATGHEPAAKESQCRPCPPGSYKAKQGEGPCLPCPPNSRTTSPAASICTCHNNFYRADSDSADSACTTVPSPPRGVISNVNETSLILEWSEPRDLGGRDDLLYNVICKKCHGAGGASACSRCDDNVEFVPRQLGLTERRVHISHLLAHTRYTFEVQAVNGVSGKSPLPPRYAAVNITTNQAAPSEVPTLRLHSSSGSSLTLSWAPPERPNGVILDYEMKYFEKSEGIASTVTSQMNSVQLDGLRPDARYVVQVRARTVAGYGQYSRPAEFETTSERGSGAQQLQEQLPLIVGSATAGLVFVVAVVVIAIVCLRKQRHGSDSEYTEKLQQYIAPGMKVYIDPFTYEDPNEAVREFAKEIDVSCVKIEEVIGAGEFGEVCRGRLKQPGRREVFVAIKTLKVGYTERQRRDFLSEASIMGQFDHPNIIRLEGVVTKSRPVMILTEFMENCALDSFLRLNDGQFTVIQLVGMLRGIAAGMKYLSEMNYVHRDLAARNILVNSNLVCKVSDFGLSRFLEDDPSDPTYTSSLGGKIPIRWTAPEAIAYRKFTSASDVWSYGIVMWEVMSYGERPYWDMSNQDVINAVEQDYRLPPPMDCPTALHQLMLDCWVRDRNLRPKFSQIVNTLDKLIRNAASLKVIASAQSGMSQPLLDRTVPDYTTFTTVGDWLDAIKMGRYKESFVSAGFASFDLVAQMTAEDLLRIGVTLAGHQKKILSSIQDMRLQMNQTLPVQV
# Condition description: at 10 µM
# Description: Millipore: Percentage of residual kinase activity of EPHB3 at 10uM relative to control. Control inhibitor: PP2 at 30.0uM. Buffer: 8 mM MOPS pH 7.0, 0.2 mM EDTA, 10 mM MnCl2
Measurement name: residual activity (%)
Please state the figure in %; there is no need to write the unit.

Below, each entry is followed by its recorded residual activity result.
1) COc1ccc(COc2ccc(Cc3cnc(N)nc3N)cc2OC)cc1 ... 110
2) O=C(c1cc2cc(O)ccc2[nH]1)c1cc2cc(O)ccc2[nH]1 ... 126
3) O=C(Nc1ccc(Cl)cc1)c1ccccc1NCc1ccncc1 ... 125

# next compound below
Fill blank: measured residual activity of the compound c1ccc(-c2cnc(Nc3ccc(OCCN4CCCC4)cc3)s2)cc1 is ____.
120

---

# System name: Tyrosine-protein kinase Lyn (Homo sapiens) (UniProt P07948)
# Sequence (P07948 2-512 limits assumed): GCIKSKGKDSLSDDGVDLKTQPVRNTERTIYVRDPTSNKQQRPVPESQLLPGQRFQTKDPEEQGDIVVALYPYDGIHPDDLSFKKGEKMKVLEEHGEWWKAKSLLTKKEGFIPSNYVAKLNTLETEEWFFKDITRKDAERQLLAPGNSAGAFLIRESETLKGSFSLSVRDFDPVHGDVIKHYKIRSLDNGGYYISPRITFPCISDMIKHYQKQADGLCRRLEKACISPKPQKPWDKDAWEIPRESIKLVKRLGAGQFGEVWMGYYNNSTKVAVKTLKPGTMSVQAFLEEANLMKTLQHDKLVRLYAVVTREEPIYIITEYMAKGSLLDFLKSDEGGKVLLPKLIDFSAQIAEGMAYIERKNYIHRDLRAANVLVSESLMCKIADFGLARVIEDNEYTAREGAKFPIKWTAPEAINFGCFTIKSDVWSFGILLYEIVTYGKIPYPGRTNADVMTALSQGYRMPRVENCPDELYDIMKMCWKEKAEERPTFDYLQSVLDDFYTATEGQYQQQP
# Condition description: at 10 µM
Threshold 60%. residual activity below it: Condition met. residual activity at it or above: Condition not met.

For orientation, consider the following solved cases.
1) O=C(O)/C=C/c1cc(Br)c(Br)c(Br)c1Br ... Condition not met
2) Nc1nccc(-c2c(-c3ccc(F)cc3)ncn2C2CCNCC2)n1 ... Condition met
3) CCOC(=O)c1c(C)[nH]c(/C=C2\C(=O)Nc3ccccc32)c1C ... Condition met

Criterion: residual activity strictly below 60%. Is it met by O=C(c1cc2cc(O)ccc2[nH]1)c1cc2cc(O)ccc2[nH]1 ?
Condition met

I'd appreciate it if you could check whether COc1ccc2c(c1)c(C1=C(c3c[nH]c4ccccc34)C(=O)NC1=O)cn2CCCN(C)C has residual activity smaller than 60%.
Condition met

Record COc1ccc(Cl)cc1NC(=O)Nc1cc(C)nc2ccccc12 : is its residual activity strictly below 60%?
Condition not met

A record lists Fc1ccc(-c2nc3n(c2-c2ccncc2)CCS3)cc1 . Is its residual activity below 60%?
Condition not met

Confirm or reject: residual activity of Cc1cc(C)c(/C=C2\C(=O)Nc3ccccc32)[nH]1 lies strictly below 60%
Condition met

---

# System name: CDK6/cyclin D3 (Homo sapiens) (UniProt P30281+Q00534)
# Condition description: at 10 µM
# Description: Millipore: Percentage of residual kinase activity of CDK6 at 10uM relative to control. Control inhibitor: Phosphoric acid* at 0.3uM. Buffer: 8 mM MOPS pH 7.0, 0.2 mM EDTA
Measurement name: residual activity (%)
// return numeric value only (unit: %, not printed)

Below, each entry is followed by its recorded residual activity result.
1. Cc1cc(C)c(/C=C2\C(=O)Nc3ccccc32)[nH]1 ... 60
2. CC(C)N(CCC(=O)c1ccc2ccccc2c1)Cc1ccccc1 ... 78
3. CCCC(=O)Oc1ccc2[nH]c(C(=O)c3cc4ccccc4[nH]3)cc2c1 ... 74
4. O=C1Nc2ccc(Cl)cc2/C1=C/c1cc(Cl)c(O)c(Cl)c1 ... 86

Given Nc1ncnc2c1c(-c1ccc(Oc3ccccc3)cc1)cn2C1CCCC1 , state its recorded residual activity.
66

Please give the measured residual activity for this compound: COc1cc2nccc(Oc3ccc(NC(=O)Nc4cc(C)on4)c(Cl)c3)c2cc1OC
99

Reported residual activity, compound O=C1Cc2c([nH]c3ccc(Br)cc23)-c2ccccc2N1 : ____
30

I am curious: what residual activity value has been reported for O=C(O)/C=C/c1cc(Br)c(Br)c(Br)c1Br ?
95

Which residual activity value belongs to COc1cc2c(cc1OC)-c1n[nH]c(Nc3cccc(F)c3)c1C2 ?
71

# residual activity lookup, item CCCCc1c(-c2ccc(O)cc2)[nH]c2nccnc12
33

If you can, please state the reported residual activity value of CCCCc1c(-c2ccc(OC)cc2)[nH]c2nccnc12 .
58

---

# System name: Tyrosine-protein kinase Lck (Homo sapiens) (UniProt P06239)
# Sequence (P06239 2-509 limits assumed): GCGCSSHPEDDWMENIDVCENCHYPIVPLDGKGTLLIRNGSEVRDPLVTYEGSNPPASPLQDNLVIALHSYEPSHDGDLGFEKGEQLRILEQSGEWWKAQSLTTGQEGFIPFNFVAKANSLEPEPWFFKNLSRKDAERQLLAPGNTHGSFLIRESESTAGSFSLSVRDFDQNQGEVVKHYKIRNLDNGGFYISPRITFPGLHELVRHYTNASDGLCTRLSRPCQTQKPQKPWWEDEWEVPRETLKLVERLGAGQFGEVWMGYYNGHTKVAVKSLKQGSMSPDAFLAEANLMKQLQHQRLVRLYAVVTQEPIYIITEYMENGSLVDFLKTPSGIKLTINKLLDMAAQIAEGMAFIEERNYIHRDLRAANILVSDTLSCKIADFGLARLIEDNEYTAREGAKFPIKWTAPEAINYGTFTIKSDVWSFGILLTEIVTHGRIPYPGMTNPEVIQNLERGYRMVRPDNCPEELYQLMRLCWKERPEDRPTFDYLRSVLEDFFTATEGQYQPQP
# Condition description: at 1 µM
I would appreciate it if you labelled entries Met when residual activity is 90% or higher, otherwise Not met.

Completed entries (count: 4):
1) CCCC(=O)Oc1ccc2[nH]c(C(=O)c3cc4ccccc4[nH]3)cc2c1 ... Not met
2) O=C(c1ccccc1)c1ccc(N2CCOCC2)cc1O ... Met
3) CCCCc1c(-c2ccc(OC)cc2)[nH]c2nccnc12 ... Not met
4) O=C(CCCc1ccc(-c2ccccc2F)cc1)Nc1ccc(O)cc1 ... Met

Now look at this one.
Hi team, for COc1cc2ncnc(Nc3cccc(Cl)c3)c2cc1OC , is the recorded residual activity at or above 90%?
Not met

---

# System name: Focal adhesion kinase 1 (Homo sapiens)
# Condition description: at 1 µM
In this section we review reported residual activity values for a set of molecules.
Report only the number, with the unit % understood.

Below: 5 molecules and their reported residual activity.
1. Nc1ncnc2[nH]nc(Nc3ccc(F)cc3)c12 ... 109
2. Nc1n[nH]c2nc3ccccc3nc12 ... 97
3. Cn1c2ccccc2c2c3c(c4c5ccccc5n(CCC#N)c4c21)CNC3=O ... 33
4. Nc1ncnc2c1c(-c1ccc(Oc3ccccc3)cc1)cn2C1CCCC1 ... 116
5. O=C(Nc1ccc(Cl)cc1)c1ccccc1NCc1ccncc1 ... 143

Entry CCCCc1c(-c2ccc(OC)cc2)[nH]c2nccnc12 has what residual activity?
67

---

We begin with a simple list: items and their reported residual activity.
# System name: Serine/threonine-protein kinase Chk1 (Homo sapiens) (UniProt O14757)
# Sequence (whole entry): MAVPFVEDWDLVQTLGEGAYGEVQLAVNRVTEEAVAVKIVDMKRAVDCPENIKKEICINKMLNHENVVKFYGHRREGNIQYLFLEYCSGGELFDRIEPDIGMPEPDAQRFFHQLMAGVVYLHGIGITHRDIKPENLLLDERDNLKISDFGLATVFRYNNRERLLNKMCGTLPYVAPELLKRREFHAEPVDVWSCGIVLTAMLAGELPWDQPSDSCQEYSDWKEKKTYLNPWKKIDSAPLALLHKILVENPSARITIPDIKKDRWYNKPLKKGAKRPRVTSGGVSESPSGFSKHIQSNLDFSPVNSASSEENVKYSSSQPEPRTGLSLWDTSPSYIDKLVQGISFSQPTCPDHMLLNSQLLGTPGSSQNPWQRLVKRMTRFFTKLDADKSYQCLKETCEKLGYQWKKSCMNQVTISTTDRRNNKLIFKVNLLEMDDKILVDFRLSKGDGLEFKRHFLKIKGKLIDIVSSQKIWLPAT
# Condition description: at 10 µM
Respond with the bare value in %.

# annotated cases, reported residual activity shown
1. CC(C)c1nn(-c2c(Cl)cccc2Cl)c2nc(Cc3ccc(OCCO)cc3)[nH]c(=O)c12 ... 95
2. CCOC(=O)c1c(C)[nH]c(/C=C2\C(=O)Nc3ccccc32)c1C ... 92
3. O=c1cc(N2CCOCC2)oc2c1ccc1ccccc12 ... 93
4. O=C1C(Cl)=C(N2C(=O)CCC2=O)C(=O)c2ccccc21 ... 87
5. O=C1NC(=O)C(c2cn(CCCn3ccnc3)c3ccccc23)=C1Nc1ccccc1 ... 37
6. O=S(=O)(NCCNC/C=C/c1ccc(Br)cc1)c1cccc2cnccc12 ... 44

Query: residual activity; subject: Nc1nc(Nc2ccc(S(N)(=O)=O)cc2)nn1C(=O)c1c(F)cccc1F
31

So what's the measured residual activity for this one? O=C(O)/C=C/c1cc(Br)c(Br)c(Br)c1Br
97

---

Measured residual activity of individual entries
# System name: Calcium/calmodulin-dependent protein kinase type II subunit gamma (Homo sapiens) (UniProt Q13555)
# Sequence (Q13555 whole entry): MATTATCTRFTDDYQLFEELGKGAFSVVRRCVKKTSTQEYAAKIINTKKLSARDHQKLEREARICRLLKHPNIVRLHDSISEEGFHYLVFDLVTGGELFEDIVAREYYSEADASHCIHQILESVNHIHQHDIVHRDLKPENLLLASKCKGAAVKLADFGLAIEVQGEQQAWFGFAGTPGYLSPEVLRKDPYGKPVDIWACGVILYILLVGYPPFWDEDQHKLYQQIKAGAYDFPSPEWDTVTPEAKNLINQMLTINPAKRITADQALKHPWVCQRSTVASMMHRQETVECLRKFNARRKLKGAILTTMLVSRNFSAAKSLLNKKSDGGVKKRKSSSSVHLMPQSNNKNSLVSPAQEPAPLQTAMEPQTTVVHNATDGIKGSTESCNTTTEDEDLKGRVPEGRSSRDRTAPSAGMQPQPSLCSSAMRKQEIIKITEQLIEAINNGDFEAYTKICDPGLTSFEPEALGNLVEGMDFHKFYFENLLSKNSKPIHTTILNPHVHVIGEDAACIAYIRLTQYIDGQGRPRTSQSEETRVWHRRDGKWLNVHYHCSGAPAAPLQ
# Condition description: at 1 µM
Please format your answer as a value with the unit trailing.

Take a look at these entries with their results.
1) O=C(NC(NC(=S)Nc1ccc(F)c([N+](=O)[O-])c1)C(Cl)(Cl)Cl)C(c1ccccc1)c1ccccc1 (stereo not given) ... 99%
2) NCCNc1ncc(C(N)=O)c(Nc2cccc(C(F)(F)F)c2)n1 ... 55%

Continue with the next compound.
Suppose we examine the compound Cn1c2ccccc2c2c3c(c4c5ccccc5n(CCC#N)c4c21)CNC3=O ; what residual activity value has been reported?
2%

---

# System name: Ephrin type-B receptor 1 (Homo sapiens) (UniProt P54762)
# Sequence (P54762 whole entry): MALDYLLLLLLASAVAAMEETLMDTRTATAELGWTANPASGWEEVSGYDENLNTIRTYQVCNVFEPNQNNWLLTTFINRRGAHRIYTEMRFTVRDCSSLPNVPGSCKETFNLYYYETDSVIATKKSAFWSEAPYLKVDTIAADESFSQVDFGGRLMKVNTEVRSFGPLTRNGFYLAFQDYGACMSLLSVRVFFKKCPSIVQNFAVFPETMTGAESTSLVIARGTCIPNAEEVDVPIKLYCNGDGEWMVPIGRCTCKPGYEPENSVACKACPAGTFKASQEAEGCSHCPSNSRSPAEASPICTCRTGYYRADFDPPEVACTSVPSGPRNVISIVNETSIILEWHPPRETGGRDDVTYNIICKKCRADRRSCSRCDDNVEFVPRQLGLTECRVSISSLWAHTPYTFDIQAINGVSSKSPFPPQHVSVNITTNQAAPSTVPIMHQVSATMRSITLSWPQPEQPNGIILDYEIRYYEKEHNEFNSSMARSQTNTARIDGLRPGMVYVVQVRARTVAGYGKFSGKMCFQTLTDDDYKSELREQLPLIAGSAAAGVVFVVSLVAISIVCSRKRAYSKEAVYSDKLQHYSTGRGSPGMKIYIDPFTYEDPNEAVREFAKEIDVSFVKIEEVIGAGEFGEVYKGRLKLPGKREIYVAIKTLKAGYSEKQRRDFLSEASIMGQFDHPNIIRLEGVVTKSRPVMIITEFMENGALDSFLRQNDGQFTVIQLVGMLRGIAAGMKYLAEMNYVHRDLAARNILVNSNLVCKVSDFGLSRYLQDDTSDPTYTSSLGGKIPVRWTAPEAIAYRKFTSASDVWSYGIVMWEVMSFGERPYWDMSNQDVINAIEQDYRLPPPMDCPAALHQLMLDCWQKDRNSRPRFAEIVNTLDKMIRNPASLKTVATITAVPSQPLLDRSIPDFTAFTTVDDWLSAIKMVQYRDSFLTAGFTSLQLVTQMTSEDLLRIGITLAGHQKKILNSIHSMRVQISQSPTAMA
# Condition description: at 10 µM
The entries below come with measured residual activity values attached.
Answer format reminder: number followed by unit.

Name the recorded residual activity for O=C(NC(NC(=S)Nc1ccc(F)c([N+](=O)[O-])c1)C(Cl)(Cl)Cl)C(c1ccccc1)c1ccccc1 (stereo not drawn) .
84%

Quick one: residual activity of CC(C)c1nn(-c2c(Cl)cccc2Cl)c2nc(Cc3ccc(OCCO)cc3)[nH]c(=O)c12 ?
84%

Quick check: residual activity of O=C1Nc2ccc(Cl)cc2/C1=C/c1cc(Cl)c(O)c(Cl)c1 ?
86%

---

# System name: Death-associated protein kinase 3 (Homo sapiens)
# Condition description: at 1 µM
Measurement name: residual activity (%)
The answer is to be given in %; state only the numeric part.

1. CSc1nc(-c2ccc(F)cc2)c(-c2ccnc(NC(C)c3ccccc3)c2)[nH]1 (centres undefined) ... 84
2. CCN(CC)CCNC(=O)c1c(C)[nH]c(/C=C2\C(=O)Nc3ccc(Cl)cc32)c1C ... 44
3. Nc1ncnc2[nH]nc(Nc3ccc(F)cc3)c12 ... 116

Request the reported residual activity associated with CCOC(=O)c1c(C)[nH]c(/C=C2\C(=O)Nc3ccccc32)c1C
94
